Tested on: HCT-15 colon
Assay: NCI-60 one-dose screen, 48 h
Conditions: 10 µM unless noted
The panel holds about 83,000 compounds, 20% with a hit somewhere; the sample as a whole holds those more often. Activity calls are given as the source filed them. Rule for the calls: active = growth percent below 10; inactive = the rest.
Outcomes: true (1) = active, false (0) = inactive

{"columns": ["molecule", "experimental target", "label"],
 "data": [
  ["Cn1c2c(c3ccc(Cl)c(Cl)c31)C(C#N)C(C)(C)NC2=O (centres undefined)", "HCT-15 colon", "false (0)"],
  ["CNC1=CC(=O)c2c(C(=O)OC)c(C)[n+]([O-])c(C)c2C1=O", "HCT-15 colon", "false (0)"],
  ["COc1ccc2c(c1)/C(=N/c1n[nH]c(=S)s1)C(=O)N2", "HCT-15 colon", "false (0)"],
  ["CCOC(=O)c1ccccc1-c1c2ccc(=[N+](C)C)cc-2oc2cc(N(C)C)ccc12", "HCT-15 colon", "false (0)"],
  ["CN1CCN(CCCOc2cccc3nc(Nc4ccc(F)c(F)c4)ccc23)CC1", "HCT-15 colon", "true (1)"],
  ["CN1CCN(Cc2ccc(NC(=O)c3cncc(C#Cc4cnc5ccc(Cl)nn45)c3)cc2C(F)(F)F)CC1", "HCT-15 colon", "true (1)"],
  ["CN(C)S(=O)(=O)Oc1ccc(-c2sc3cc(OS(=O)(=O)N(C)C)ccc3c2C(=O)c2ccc(OCCN3CCCCC3)cc2)cc1", "HCT-15 colon", "false (0)"],
  ["Nc1nc(N)c(N=Nc2ccccc2)c(-c2ccccc2)n1", "HCT-15 colon", "false (0)"],
  ["CS(=O)(=O)Nc1cc(-c2ccc3ncc(C#N)c(Nc4ccc(F)c(Cl)c4)c3c2)cnc1Cl", "HCT-15 colon", "true (1)"]
]}
